# TESTED SYSTEM: T1, recombinant cynomolgus SEMA4A AviHis10, biotinylated (cynomolgus, UniProt Q9H3S1 32-677 (human entry), biotin on the Avi tag (BirA))
# T1 construct: The text says amino acids 32-679 of G7NV79 with C-terminal Avi tag and His10 tag; also called Cyno SEMA4A AviHis10; cynoSEMA4A
# T1 chain: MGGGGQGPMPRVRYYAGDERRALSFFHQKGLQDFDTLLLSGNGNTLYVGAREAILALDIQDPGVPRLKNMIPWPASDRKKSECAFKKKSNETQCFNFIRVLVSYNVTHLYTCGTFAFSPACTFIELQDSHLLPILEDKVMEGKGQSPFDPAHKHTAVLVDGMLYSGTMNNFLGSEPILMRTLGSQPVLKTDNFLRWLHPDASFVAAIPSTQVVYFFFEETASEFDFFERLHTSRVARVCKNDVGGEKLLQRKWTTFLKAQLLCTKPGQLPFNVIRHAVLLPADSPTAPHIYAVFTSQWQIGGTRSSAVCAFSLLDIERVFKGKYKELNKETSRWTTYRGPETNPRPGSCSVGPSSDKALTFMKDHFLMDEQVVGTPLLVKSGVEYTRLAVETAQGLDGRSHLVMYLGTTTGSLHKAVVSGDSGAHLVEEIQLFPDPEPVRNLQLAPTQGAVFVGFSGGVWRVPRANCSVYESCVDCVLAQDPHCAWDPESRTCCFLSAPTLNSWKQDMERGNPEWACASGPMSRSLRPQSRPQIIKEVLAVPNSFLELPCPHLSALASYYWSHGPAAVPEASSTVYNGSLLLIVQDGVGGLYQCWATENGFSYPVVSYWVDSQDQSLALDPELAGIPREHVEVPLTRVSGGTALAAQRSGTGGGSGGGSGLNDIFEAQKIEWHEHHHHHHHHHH
# METHOD SUMMARY: BLI (OctetRED), biotinylated SEMA4A on streptavidin tip, IgG as analyte, 1:1 model; KD(observed) IgG
Reported pKd by item:
Quick note: pKd values are minus log10 of concentrations in mol/L.

| BINDER | REPORTED VALUE |
| --- | --- |
| C0120906 human Alya IgG1 (antibody, V domains shown, Fully human, phage display derived; human IgG1 Alya constant (239iCys, S442C, EU); unconjugated) VH: EVQLVQSGPEVKKPGASVKISCKASGYKLNDPGVHGVSWVRQAPGQGLEWMGWISTLNGDTRYAQKFQGRVTMATDSSTSTIYMDLRSLKSDDTALYYCARDDYTAIFDFWGRGTLVTVSS VL: QSVLTQPPSVSVAPGQTASITCGGSNIGSQSVHWYQQKPGQAPVLVVYDDSDRPSGIPERFSGSKSGNTASLILSRVEAGDEADYYCQVWDSSTDHHVFGTGTKVTVL | 8.70 |
| C0120903 human Alya IgG1 (antibody, V domains shown, Fully human, phage display derived; human IgG1 Alya constant (239iCys, S442C, EU); unconjugated) VH: EVQLVQSGAEVKKPGSSMKVSCKASGGTFNSYTINWVRQAPGQGLEWVGGFIPIFGTADYAQKFHGRVAITADESMSTAYMELSSLRSEDTAVYYCARAPLGSEPFDYWGQGTMVTVSS VL: SYVLTQPPSVSVAPGQTARITCGGNNIGSKSVHWYQQKPGQAPVLVVYDDSDRPSGIPERFSGSNSGNTATLTISRVEAGDEADYYCQVWDSSSDHLVFGGGTKLTVL | 7.70 |

Here's the next entry for you.
Recorded pKd for C0120914 human Alya IgG1 (antibody, V domains shown, Fully human, phage display derived; human IgG1 Alya constant (239iCys, S442C, EU); unconjugated) VH: QVQLQESGPGLVKPSETLSLTCTVSGGSVSSGRYDWSWIRQPPGKGLEWIGHIYYTGITDYNPSLRSRVTISADKPKNQFSLKLNSVTAADTAVYYCARGPFFDPWGQGTMVTVSS VL: QSVLTQPPSVSVAPGQTASLTCGANNIGSKSVQWYQQKPGQAPVLVVYDGSDRPSGIPDRFSGSSSENTATLTISRVEAGDEADYYCQLWDSVTDRPVFGGGTKVTVL , please?
7.01

Cited source: patent US20250152729A1
